test: Maximum plasma concentration in rat after peroral administration; assay type: ADME, organism-based; parameters: route oral; settings: po
The label is fulfilled for Cmax below 7000 ng/mL and not fulfilled for Cmax equal to or exceeding 7000 ng/mL.

Completed entries (count: 3):
{"Record Smiles": "CCO[C@@H](Cc1ccc(OC/C=C/C#Cc2ccc(C#C/C=C/COc3ccc(C[C@H](OCC)C(=O)O)cc3)cc2)cc1)C(=O)O", "Label Class": "not fulfilled"}
{"Record Smiles": "CCO[C@@H](Cc1ccc(OC/C=C(\\C)c2ccc(-c3ccccc3)cc2)cc1)C(=O)O", "Label Class": "not fulfilled"}
{"Record Smiles": "CCO[C@@H](Cc1ccc(OC/C=C/C#Cc2ccccc2)cc1)C(=O)O", "Label Class": "fulfilled"}

Hello, is Cmax of the following compound strictly smaller than 7000 ng/mL? CCO[C@@H](Cc1ccc(OC/C=C(\C)c2ccc(-c3ccc(/C(C)=C/COc4ccc(C[C@H](OCC)C(=O)O)cc4)cc3)cc2)cc1)C(=O)O
not fulfilled

====

molecular target: Peroxisome proliferator-activated receptor alpha (Rattus norvegicus, UniProt P37230); experiment: In vitro transactivation of rat Peroxisome proliferator activated receptor alpha
Property Label: log10 EC50 (log10 of the value in µM)
Values below are the log10 of the recorded EC50, with µM as the unit.

Any idea what log10 EC50 came out for CCO[C@@H](Cc1ccc(OC/C=C(\C)c2ccc(-c3ccccc3)cc2)cc1)C(=O)O on Peroxisome proliferator-activated receptor alpha (Rattus norvegicus, UniProt P37230)?
1.05

====

assay: Oral bioavailability in rat; format: ADME, organism-based; conditions: in vivo
Property Label: bioavailability (%)
Field: numeric (%). Do not append units.

{"Compound": "CCO[C@@H](Cc1ccc(OC/C=C/C#Cc2ccccc2)cc1)C(=O)O", "bioavailability, %": 89}
{"Compound": "CCO[C@@H](Cc1ccc(OC/C=C(\\C)c2ccc(-c3ccc(/C(C)=C/COc4ccc(C[C@H](OCC)C(=O)O)cc4)cc3)cc2)cc1)C(=O)O", "bioavailability, %": 58}
{"Compound": "CN(CCOc1ccc(CC2SC(=O)NC2=O)cc1)c1ccccn1 (stereo unspecified)", "bioavailability, %": 83}

Value lookup for bioavailability; key = CCO[C@@H](Cc1ccc(OC/C=C(\C)c2ccc(-c3ccccc3)cc2)cc1)C(=O)O
100

Value lookup for bioavailability; key = CCO[C@@H](Cc1ccc(OC/C=C/C#Cc2cccc(C#C/C=C/COc3ccc(C[C@H](OCC)C(=O)O)cc3)c2)cc1)C(=O)O
63

Value lookup for bioavailability; key = CCO[C@@H](Cc1ccc(OC/C=C/C#Cc2ccc(C#C/C=C/COc3ccc(C[C@H](OCC)C(=O)O)cc3)cc2)cc1)C(=O)O
100

====

Below: a set of entries, each annotated with reported clearance.
experiment: Clearance in rat; format: ADME, organism-based; conditions: in vivo
Field: numeric (mL/min/kg). Do not append units.

{"Molecule": "CN(CCOc1ccc(CC2SC(=O)NC2=O)cc1)c1ccccn1 (stereo unspecified)", "U": "mL/min/kg", "Observed Result": 2.1}
{"Molecule": "CCO[C@@H](Cc1ccc(OC/C=C/C#Cc2cccc(C#C/C=C/COc3ccc(C[C@H](OCC)C(=O)O)cc3)c2)cc1)C(=O)O", "U": "mL/min/kg", "Observed Result": 0.23}
{"Molecule": "CCO[C@@H](Cc1ccc(OC/C=C(\\C)c2ccc(-c3ccc(/C(C)=C/COc4ccc(C[C@H](OCC)C(=O)O)cc4)cc3)cc2)cc1)C(=O)O", "U": "mL/min/kg", "Observed Result": 0.04}
{"Molecule": "CCO[C@@H](Cc1ccc(OC/C=C/C#Cc2ccccc2)cc1)C(=O)O", "U": "mL/min/kg", "Observed Result": 0.54}
{"Molecule": "CCO[C@@H](Cc1ccc(OC/C=C(\\C)c2ccc(-c3ccccc3)cc2)cc1)C(=O)O", "U": "mL/min/kg", "Observed Result": 0.49}

Now, please, on to the next molecule.
Value lookup for clearance; key = CCO[C@@H](Cc1ccc(OC/C=C/C#Cc2ccc(C#C/C=C/COc3ccc(C[C@H](OCC)C(=O)O)cc3)cc2)cc1)C(=O)O
0.1

====

Below: a set of entries, each annotated with reported logP.
assay: Partition coefficient (logP); format: physicochemical; conditions: octanol/water
Please give the numeric answer without any surrounding text.

{"Compound": "CCO[C@@H](Cc1ccc(OC/C=C/C#Cc2cccc(C#C/C=C/COc3ccc(C[C@H](OCC)C(=O)O)cc3)c2)cc1)C(=O)O", "logP": 4.81}
{"Compound": "CCO[C@@H](Cc1ccc(OC/C=C(\\C)c2ccc(-c3ccccc3)cc2)cc1)C(=O)O", "logP": 4.5}
{"Compound": "CCO[C@@H](Cc1ccc(OC/C=C(\\C)c2ccc(-c3ccc(/C(C)=C/COc4ccc(C[C@H](OCC)C(=O)O)cc4)cc3)cc2)cc1)C(=O)O", "logP": 4.89}
{"Compound": "CC(C)(Oc1ccc(C(=O)c2ccc(Cl)cc2)cc1)C(=O)O", "logP": 4.27}
{"Compound": "CCO[C@@H](Cc1ccc(OC/C=C/C#Cc2ccccc2)cc1)C(=O)O", "logP": 3.87}

Value lookup for logP; key = CN(CCOc1ccc(CC2SC(=O)NC2=O)cc1)c1ccccn1 (configuration not stated)
1.91

Value lookup for logP; key = CCO[C@@H](Cc1ccc(OC/C=C/C#Cc2ccc(C#C/C=C/COc3ccc(C[C@H](OCC)C(=O)O)cc3)cc2)cc1)C(=O)O
4.81

====

Below: a set of entries, each annotated with reported log10(EC50).
Target: Peroxisome proliferator-activated receptor alpha (Rattus norvegicus)
Sequence (P37230 whole entry): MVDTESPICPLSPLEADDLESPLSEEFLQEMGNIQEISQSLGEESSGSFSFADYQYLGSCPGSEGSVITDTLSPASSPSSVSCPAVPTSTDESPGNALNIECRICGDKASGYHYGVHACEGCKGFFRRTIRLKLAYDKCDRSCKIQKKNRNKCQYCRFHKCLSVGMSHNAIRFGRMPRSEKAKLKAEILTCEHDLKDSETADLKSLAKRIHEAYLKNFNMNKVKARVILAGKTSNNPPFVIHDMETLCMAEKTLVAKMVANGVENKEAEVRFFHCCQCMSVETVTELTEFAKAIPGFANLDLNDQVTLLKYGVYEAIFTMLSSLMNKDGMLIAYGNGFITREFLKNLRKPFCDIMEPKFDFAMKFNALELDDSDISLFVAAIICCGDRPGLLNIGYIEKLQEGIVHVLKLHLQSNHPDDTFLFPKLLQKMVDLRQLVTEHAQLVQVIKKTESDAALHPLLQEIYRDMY
Experiment: In vitro transactivation of rat Peroxisome proliferator activated receptor alpha
Values below are the log10 of the recorded EC50, with µM as the unit.

{"Record Smiles": "Cc1cccc(Nc2cc(Cl)nc(SCC(=O)O)n2)c1C", "Observed Result": 0.32}
{"Record Smiles": "CCO[C@@H](Cc1ccc(OC/C=C/C#Cc2cccc(C#C/C=C/COc3ccc(C[C@H](OCC)C(=O)O)cc3)c2)cc1)C(=O)O", "Observed Result": 0.66}
{"Record Smiles": "CCO[C@@H](Cc1ccc(OC/C=C(\\C)c2ccc(-c3ccc(/C(C)=C/COc4ccc(C[C@H](OCC)C(=O)O)cc4)cc3)cc2)cc1)C(=O)O", "Observed Result": 1.30}
{"Record Smiles": "CCO[C@@H](Cc1ccc(OC/C=C/C#Cc2ccc(C#C/C=C/COc3ccc(C[C@H](OCC)C(=O)O)cc3)cc2)cc1)C(=O)O", "Observed Result": 0.80}
{"Record Smiles": "CCO[C@@H](Cc1ccc(OC/C=C/C#Cc2ccccc2)cc1)C(=O)O", "Observed Result": -0.15}

Any idea what log10(EC50) came out for CC(C)(Oc1ccc(C(=O)c2ccc(Cl)cc2)cc1)C(=O)O on Peroxisome proliferator-activated receptor alpha (Rattus norvegicus)?
2.12
